- target system: Calmodulin-1 (Homo sapiens)
- protocol text: CALM1 binders on microarrays, EGTA buffer, profiling panel, biochemical, small-molecule microarray, Cy5-labelled CALM1 (AID 1111);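 further: labelled calmodulin applied in Tris saline Tween buffer holding calcium plus EGTA and DTT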
- experimental context: Cy5-CALM1 binding fluorescence, higher = more signal
metric name: composite z-score
Reply with the value as a number alone.

*Q* # return recorded composite z-score for input "C=CC[C@]1(C(=O)NCc2ccccc2)N=C(c2ccc(OCCCO)cc2)O[C@H]1c1ccccc1N=[N+]=[N-]"
*A* 1.96

*Q* # return recorded composite z-score for input C[C@H]1NC(=O)[C@@]23C(=O)N[C@@H](Cc4ccccc4)C2[C@H](C)[C@@]2(C)O[C@H]2C3/C=C/C/C=C\CNC(=O)[C@@H]2CCCN2C1=O (some centres undefined)
*A* 0.339

*Q* # return recorded composite z-score for input "CC(C)N1C(=O)C[C@@](C(=O)NCC(F)(F)F)(c2ccc([N+](=O)[O-])cc2)[C@H]1c1ccc(CO)cc1"
*A* -0.273

*Q* # return recorded composite z-score for input "CC(C)CNC(=O)[C@@]1(Cc2ccccc2I)c2ccccc2C(=O)N(C2CCCCC2)[C@H]1c1ccc(CO)cc1"
*A* 0.424
